// Drug metabolism lookup, one value per entry
Assay: Drug metabolism in human intestine microsomes assessed as psilocin formation at 2.5 uM after 120 mins by LC-MS analysis
Type: ADME, Microsome
Settings: 2 h
readout_label: Drug metabolism (µM)

> print(dat)
                           smiles.structure  uom  observed.result
1  CC(C)[Si](C(C)C)(C(C)C)n1cc(CCN(C)C)c2c(OC(=O)Sc3ccccc3)cccc21   µM                0
2  COC(=O)c1cccc(C(=O)Oc2cccc3[nH]cc(CCN(C)C)c23)c1   µM            0.241
3  COCCOCCOCC(=O)Oc1cccc2[nH]cc(CCN(C)C)c12   µM                0
4  CCC(=O)Oc1cccc2c1c(CCN(C)C)cn2[Si](C(C)C)(C(C)C)C(C)C   µM            0.053
5  CC(C)[Si](C(C)C)(C(C)C)n1cc(CCN(C)C)c2c(OC(=O)c3ccc(Br)cc3)cccc21   µM            0.887

Data provenance: ChEMBL document CHEMBL5335796
